Assay: chemical genetic growth profiling, strain panel (AID 1159580);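 further: tested at 20 µM; growth read once vehicle control cultures reached saturation at 30 °C; 1 = growth at the plate median or of vehicle wells; lower values mean less growth of the strain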
Settings: S. cerevisiae deletion strains, growth OD, locus YGL248W, strain PDE1, hits give low values
Screen size: about 5,500 compounds; about 2,000 (36%) were called active. Inconclusive results (about 18%) are left out. The list shows a part of the results.
quantity_name: normalized growth
I'd appreciate a reply containing only the number, no unit.

CC(=O)O[C@@H]1C=C[C@@]2(C)C(C[C@@H](OC(C)=O)[C@@]3(C)C4=CC(=O)O[C@@H](c5ccoc5)[C@]4(C)CCC23)C1(C)C (stereo partly drawn) ... 1.02
C/C1=C/CC(C)(C)/C=C/C/C(C)=C/CC1 ... 1.01
CC(=O)O[C@@H]1CC2C(C)(C)[C@H](O)C=C[C@]2(C)C2CC[C@]3(C)C(=CC(=O)O[C@H]3c3ccoc3)[C@@]21C (stereo partly drawn) ... 1.01
CC(CCc1ccccc1)NCC(O)c1ccc(O)c(C(N)=O)c1 (stereo not drawn) ... 0.992
COc1cc(C/C=C/c2ccccc2)c(OC)cc1O ... 0.967

May I ask what normalized growth has been recorded for `COc1ccc2cc(CCC(C)=O)ccc2c1` ?
0.959

Same for `N[C@@H](CCC(=O)N[C@@H](CS)C(=O)NCC(=O)O)C(=O)O`
0.999

Same for `CCCc1c(OCCCCc2nn[nH]n2)ccc(C(C)=O)c1O`
1.01

For `CS(=O)(=O)Nc1ccc([N+](=O)[O-])cc1Oc1ccccc1` then?
0.946

Param item: CC(C)CCCC(C)[C@H]1CCC2C3C(=O)C=C4C[C@@H](O)CC[C@]4(C)C3CC[C@@]21C (stereo partly drawn)
1.04

Same lookup for `CN(C)c1ccc(O)c2c1C[C@H]1C[C@H]3[C@H](N(C)C)C(=O)C(C(N)=O)=C(O)[C@@]3(O)C(=O)C1=C2O` , please.
0.974

`CC(=O)Oc1ccc(/C=C/c2cc(OC(C)=O)cc(OC(C)=O)c2)cc1` , same question.
0.974

Record: CCC(C)[C@H]1O[C@]2(C=C[C@@H]1C)C[C@@H]1C[C@@H](C/C=C(\C)[C@@H](OC3C[C@H](OC)C(O[C@H]4C[C@H](OC)[C@@H](O)[C@H](C)O4)[C@H](C)O3)[C@@H](C)/C=C/C=C3\CO[C@@H]4[C@H](O)C(C)=C[C@@H](C(=O)O1)[C@]34O)O2 (stereo partly drawn)
0.797
